- Test system: HT-29 cells
- ASSAY_DETAILS: CellTiter-Glo luminescent cell viability assay with HT-29 cells (72h incubation)
- Assay type: cell-based, human
- EXPERIMENTAL_CONTEXT: Homo sapiens, HT-29, HT29 cells, read-out: CTG HT29
Reported IC50 by item:

Would you please look over these solved cases?
* Cc1ccc2cc1CNC(=O)[C@H](CCc1ccccc1)NC(=O)[C@@H](NC(=O)C1(c3ccc(N)cc3)CC1)CC(=O)N1CCCC(CCO2)C1 (stereo partly drawn) | < 100 nM
* Cc1ccc2cc1CNC(=O)[C@H](CCc1ccccc1)NC(=O)[C@@H](NC(=O)[C@@H](C)c1ccccc1)CC(=O)N1CCCC(CCO2)C1 (stereo partly drawn) | < 100 nM
* CC(=O)N[C@H]1CC(=O)N2CCCC(CCOc3ccc(C)c(c3)CNC(=O)C(c3cnn(CCOCCOCCOCCN)c3)NC1=O)C2 (stereo partly drawn) | 100 to 500 nM
* Cc1ccc2cc1CNC(=O)[C@H](CCc1ccccc1)NC(=O)[C@@H](NC(=O)C1(c3ccc(N)cc3)CCCC1)CC(=O)N1CCCC(CCO2)C1 (stereo partly drawn) | < 100 nM
* CC(=O)N[C@H]1CC(=O)NCCCOc2ccc(C)c(c2)CNC(=O)[C@H](CCc2ccccc2)NC1=O | 100 to 500 nM

# ---- query compound ----
Record Cc1ccc2cc1CNC(=O)[C@H](CCc1ccccc1)NC(=O)[C@@H](NC(=O)C1(C)CCOCC1)CC(=O)N1CCCC(CCO2)C1 (stereo partly drawn) / HT-29 cells, IC50 recorded as < 100 nM
